Overview of recorded max response for various compounds
# experiment notes: Cycloheximide Counterscreen for Small Molecule Inhibitors of Shiga Toxin
# stated conditions: cell reporter, cycloheximide protein synthesis inhibition counterscreen; hits give high values
Among all 300,000 compounds or so, about 37,000 (12%) were called active. Only a selection was taken, and actives are over-represented in it overall.
measurement type: max response (%)

compound	unit descriptor	observed result
CCOC(=O)c1c(NC(=O)C2CCN(S(=O)(=O)c3ccc(Cl)cc3)CC2)sc2c1CCCC2	%	25.4
Cc1ccsc1/C=N/Nc1ccc(Cl)nn1	%	14
Cc1cccc(C(=O)Nc2ccc3c(c2)C(=O)N(CC(C)C)C3=O)c1	%	10.4
Cc1ccc(-c2cn3cc(C)ccc3n2)cc1	%	-15.5
Cc1ccc(CNC(=O)c2ccc(CS(=O)Cc3cccc(Cl)c3)o2)cc1 (stereo unspecified)	%	5.04
COCCCNC(=O)Cn1cc(C(=O)C2CC2)c2ccccc21	%	-2.09
N[C@@H](Cc1ccccc1)C(=O)N1CCC(C(=O)NCC(=O)Nc2ccc(F)cc2)CC1	%	10.8
O=C(COC(=O)c1ccc(Oc2ccccc2)cc1)Nc1nnc(-c2ccccc2)o1	%	13.5
Cc1cccc(C(=O)Nc2ccccc2C(=O)NCc2cccnc2)c1	%	-1.87
CCOc1ccc(C(O)Cn2c(=N)n(CCN3CCCCC3)c3ccccc32)cc1 (stereo unspecified)	%	-4.27
Cc1ccsc1/C=N/n1c(=S)[nH]nc(C)c1=O	%	-1.56
C/[N+]([O-])=C\c1ccc([N+](=O)[O-])o1	%	8.46
COC(=O)Cn1cc(C(=O)c2cccs2)c2ccccc21	%	-0.264
Clc1ccc(N/N=C/c2cccs2)nn1	%	22.2
Cc1ccc(C(=O)Cn2cc([N+](=O)[O-])nc2C)cc1	%	-1.83
O=C(N/N=C/c1ccc([N+](=O)[O-])o1)c1cn(-c2ccccc2)nc1-c1ccc(F)cc1	%	10.8
CC1(C)NC(=O)N(CC(=O)Nc2cc(C(F)(F)F)cc(C(F)(F)F)c2)C1=O	%	-1.59
O=C(O)COc1ccc(-c2nccc(-c3cccs3)n2)cc1	%	-3.38
Cc1ccc(-c2cn3cc([N+](=O)[O-])ccc3n2)cc1	%	92.8
O=C(Cn1cc(-c2nnnn2-c2ccc(Cl)cc2)c(=O)c2ccccc21)c1ccccc1	%	-5.16
COc1ccc(NC(=O)Nc2ccc3nsnc3c2)cc1	%	49.2
Cc1ccnc(N2C(=O)c3ccc([N+](=O)[O-])cc3C2=O)c1	%	-0.576
Cc1ccc(C(=O)NNC2=Nc3cc([N+](=O)[O-])ccc3OC2)cc1	%	20.2
O=C(CN1CCN(S(=O)(=O)c2ccc(F)cc2)CC1)NC1CC1	%	1.9
O=C(CCCCCn1c(=S)[nH]c2cc3c(cc2c1=O)OCO3)N1CCN(c2ccc(F)cc2)CC1	%	10.7
CCOC(=O)N1CCN(C(=O)c2cn(C)c3ccc(S(=O)(=O)N(CC)CC)cc3c2=O)CC1	%	-2.19
CC1(C)N=C(c2ccccn2)C(C)(C)N1O	%	-7.15
COCCNC(=O)Nc1ccc2nc(-c3ccco3)c(-c3ccco3)nc2c1	%	-4.08
COc1ccc(C(=O)Nc2ccc(NC(=O)C(C)C)nc2)cc1	%	2.34
CCCn1c(C(O)c2ccc(OCC)cc2)nc2ccccc21 (stereo unspecified)	%	-3.7
COc1ccc(/C=N/NC(=O)Nc2ccc3nsnc3c2)c(OC)c1	%	-1.93
Cc1ccc2nc(-c3ccc(Br)cc3)cn2c1	%	17.6
O=C(NCc1cccnc1)c1nc(-c2cccs2)no1	%	13.1
CN(CCN1CCOCC1)Cc1nc(-c2ccc3c(c2)OCO3)no1	%	8.52
c1ccc(-c2nccc(-c3ccc(-n4cnc5ccccc54)cc3)n2)nc1	%	-1.84
COc1ccc(C(=O)NNC(=S)NC(=O)c2ccccc2)cc1	%	8.67
COc1cc(/C=N/Nc2ccc(C)cc2)cc(Br)c1O	%	7.52
C=CS(=O)c1sc(Cl)c(N2CCOCC2)c1[N+](=O)[O-] (stereo unspecified)	%	-4.64
CC(C)NS(=O)(=O)c1ccc(OCC(=O)NC2CCCCCC2)cc1	%	1.29
COc1ccc(NC(=O)c2ccc(OC)cc2)cc1	%	45.1
O=C(NC(=S)NC1CCCCC1)c1ccc(Cl)cc1	%	-1.68
c1ccc(-c2noc(-c3cccs3)n2)nc1	%	17.4
Cn1c(=O)c2c(nc(N/N=C/c3cccs3)n2Cc2ccc(Br)cc2)n(C)c1=O	%	10.1
O=C(Oc1ccc(-c2nc(-c3ccccn3)no2)cc1)c1ccccc1	%	31
CC1(C)Cc2ccccc2-c2[nH]c(=S)[nH]c(=O)c21	%	-1.88
CC(C)c1cc(NCc2ccccn2)n2c(nc3ccccc32)c1C#N	%	9.39

###

# experiment notes: Cycloheximide Counterscreen for Small Molecule Inhibitors of Shiga Toxin; note: read at 38.3 µM for the half of the compounds with a filed dose; 0% is about no effect
# stated conditions: cell reporter, cycloheximide protein synthesis inhibition counterscreen; hits give high values
Hit rate of the full screen: of about 300,000 compounds, about 37,000 (12%) were called active. The entries come from a sample that favours actives as a whole.
Listing of recorded max response by entry.

compound	max response (%)
CCOC(=O)c1ccccc1NC(=O)CSc1nc2ccccc2c(=O)[nH]1	-3.39
CCOC(=O)c1sc(NC(=O)CSc2n[nH]c(CC)n2)nc1C	0.587
O=C(COC(=O)c1ccc(Cl)nc1)NCc1ccc2c(c1)OCO2	-4.58
CCCc1ccc(OCC(O)CN2CCN(C(=O)OCC)CC2)cc1 (stereo unspecified)	-3.42
O=C(CCS(=O)(=O)c1ccccc1)Nc1nc2c(s1)CCCC2	5.94
CNC(=O)C(NC(=O)c1ccccc1)=C(C)C	3.38
CC1(C)Cc2c(sc(NC(=O)C(=O)N3CCOCC3)c2C#N)CO1	-9.16
CCOC(=O)c1sc(NC(=O)CSc2nc(O)c(Cc3ccccc3)c(=O)[nH]2)nc1C	39.7
CC(=O)N(Cc1cc(=O)[nH]c2ccccc12)c1ccc(C)cc1C	-0.991
O=Cc1c(Nc2ccccc2Cl)nc2ccccn2c1=O	-2.35
O=C(CSc1nc(O)c(Cc2ccccc2)c(=O)[nH]1)Nc1nc2c(s1)CCCC2	28

###

# experiment notes: Cycloheximide Counterscreen for Small Molecule Inhibitors of Shiga Toxin; note: read at 38.3 µM for the half of the compounds with a filed dose; 0% is about no effect
# stated conditions: cell reporter, cycloheximide protein synthesis inhibition counterscreen; hits give high values
In all, about 300,000 compounds went through this assay and about 37,000 (12%) were called active. What follows is part of a selection rich in actives, with near analogues and random picks from the rest.

compound	max response / %
O=C(CN(C(=O)c1csnn1)c1ccc(Br)cc1)NC1CCCC1	-2.24
CC(C)CN(CC(C)C)C(=O)CN1c2cccc3cccc(c23)S1(=O)=O	0.92
CCn1c(C)cc(=O)cc1-c1ccc(Cl)cc1	-3.63
CC(/C=N/NC(=O)c1cc(-c2ccc3ccccc3c2)n[nH]1)=C\c1ccco1	22.2
Cc1cc(C)c(OCC(=O)N/N=C/c2ccco2)c(C)c1	-3.21
O=C(Cc1ccc(S(=O)(=O)N2CCOCC2)s1)NCCC(c1ccccc1)c1ccccc1	-2.5
Cc1nn(C)c(C)c1Sc1ccccc1N	1.39
COc1ccc(S(=O)(=O)N2CCOC2CNC(=O)C(=O)NCc2ccc(F)cc2)cc1 (stereo unspecified)	-1.46
CC(C)NC(=O)COCc1cc(-c2ccc3c(c2)OCO3)on1	34.6
COc1ccccc1C1C(C(N)=O)=C(C)Nc2nc(CCCO)nn21 (stereo unspecified)	-5.85
C=CCn1c(=NC(=O)c2ccc(S(=O)(=O)N3CCCC3)cc2)sc2cc(NC(C)=O)ccc21	-4.67

###

# experiment notes: Cycloheximide Counterscreen for Small Molecule Inhibitors of Shiga Toxin; note: read at 38.3 µM for the half of the compounds with a filed dose; 0% is about no effect
# stated conditions: cell reporter, cycloheximide protein synthesis inhibition counterscreen; hits give high values
About 37,000 (12%) of roughly 300,000 compounds were called active. This excerpt belongs to a sample that is enriched for actives.

molecule	unit descriptor	max response
Cc1cc(C)c([N+](=O)[O-])cc1-c1ccc(/C=N/NC(=O)c2nonc2N)o1	%	8.92
C=C(Br)Cn1c(CCCC)nc2ccccc21	%	3.99
CN1CCN(c2ccccc2NC(=O)COc2ccc(C3CCCCC3)cc2)CC1	%	-1.31
Cn1nc(-c2ccccc2)c2cc([N+](=O)[O-])ccc21	%	1.38
COCc1cc(=O)oc2cc(NS(=O)(=O)c3ccc(C)cc3)ccc12	%	2.21
CC1CN(c2nc(Nc3ccccc3)nc(N)c2[N+](=O)[O-])CC(C)O1 (stereo not given)	%	1.21
O=C(NC(=S)Nc1ccc2oc(=O)ccc2c1)c1ccc(-c2cccc(Cl)c2Cl)o1	%	6.87
Cc1nn(-c2ccccc2)c(C)c1/C=N/NC(=O)CSc1nc2ccccc2c(=O)n1-c1ccccc1	%	-2.06
O=C(O)c1ccc(OCC2CCCO2)cc1 (stereo not given)	%	-2.17
Cc1nn(-c2ccccc2)c(NC(=O)c2cccs2)c(-c2ccc(Cl)cc2)c1=O	%	-4.56

###

Catalogue of compounds with associated max response
# experiment notes: Cycloheximide Counterscreen for Small Molecule Inhibitors of Shiga Toxin; note: read at 38.3 µM for the half of the compounds with a filed dose; 0% is about no effect
# stated conditions: cell reporter, cycloheximide protein synthesis inhibition counterscreen; hits give high values
Screen size: about 300,000 compounds; about 37,000 (12%) were called active. The sample as a whole holds a higher share of actives than the screen did.

compound	max response [%]
CCOc1cc(C2C(C(=O)c3ccco3)=C(O)C(=O)N2Cc2ccccc2)ccc1O (stereo unspecified)	4.82
O=C(NNS(=O)(=O)c1ccc(F)cc1)c1ccc([N+](=O)[O-])cc1Cl	-3.45
Cc1oc2c(C)c3oc(=O)c(CC(=O)N[C@@H](CC(C)C)C(=O)N[C@@H](Cc4ccccc4)C(=O)O)c(C)c3cc2c1C	-3.89
COc1ccc2nc(/N=C(\N)NC(=O)Nc3ccccc3)nc(C)c2c1	21.4
O=C(COC(=O)/C=C/c1ccc(S(=O)(=O)N2CCCCCC2)cc1)NCc1ccccc1Cl	0.471
O=C(Nc1ccc(Br)cn1)c1ccc([N+](=O)[O-])o1	48.9
Cc1cc([N+](=O)[O-])ccc1NC(=O)c1ccc(NC(=O)C(C)C)cc1	5.74
CCOc1ccc2nc(NCCNS(=O)(=O)c3ccccc3)c(C#N)cc2c1	25.7
CCOc1ccc(-n2c(SCC(=O)OC)nc3sc4c(c3c2=O)CCN(C)C4)cc1	-9.49
CCn1cc(C(=O)N2CC(C)CC(C)C2)c(=O)c2cc(S(=O)(=O)N3CCCC3)ccc21 (stereo unspecified)	-2.89
COCc1cc(=O)[nH]c(SC)n1	-3.39
Cc1cc2oc(=O)cc(CN(C)Cc3ccc(OC(F)F)cc3)c2cc1Cl	-1.16
CCOc1ccc(-n2c(SCC(=O)Nc3ccc(OC)cc3)nc3sc4c(c3c2=O)CCN(C)C4)cc1	-3.77
CCCC(O)(CCC)C(=O)NN(C(=O)CCl)c1cccc(C)c1	4.6
Cc1nc(/N=C(\N)NC(=O)NC2CCCCC2)nc2ccccc12	8.1
COc1ccc(C(=O)NNC(=S)NC(=O)c2ccccc2[N+](=O)[O-])cc1	2.1
CN1C(=O)c2ccc(C(=O)Nc3ccc(Br)cn3)cc2C1=O	1.67
O=C(Nc1ccncc1)c1ccc([N+](=O)[O-])cc1Cl	-4.24
O=C(Nc1ccc(Br)cn1)c1ccc([N+](=O)[O-])cc1Cl	51.7
COc1cccc(/C=N\NC(=O)C2=NNC(=O)C2C)c1O (stereo unspecified)	32.5
COc1ccc(-n2nnnc2SCC(=O)NCc2cccs2)cc1	-3.1

Values were extracted from PubChem BioAssay AID2314.
